Data origin, for the record: patent US20250090540A1

Target: H1047R PIK3CA enzyme (Homo sapiens, UniProt P42336, H1047R)
Sequence (P42336 whole entry H1047R): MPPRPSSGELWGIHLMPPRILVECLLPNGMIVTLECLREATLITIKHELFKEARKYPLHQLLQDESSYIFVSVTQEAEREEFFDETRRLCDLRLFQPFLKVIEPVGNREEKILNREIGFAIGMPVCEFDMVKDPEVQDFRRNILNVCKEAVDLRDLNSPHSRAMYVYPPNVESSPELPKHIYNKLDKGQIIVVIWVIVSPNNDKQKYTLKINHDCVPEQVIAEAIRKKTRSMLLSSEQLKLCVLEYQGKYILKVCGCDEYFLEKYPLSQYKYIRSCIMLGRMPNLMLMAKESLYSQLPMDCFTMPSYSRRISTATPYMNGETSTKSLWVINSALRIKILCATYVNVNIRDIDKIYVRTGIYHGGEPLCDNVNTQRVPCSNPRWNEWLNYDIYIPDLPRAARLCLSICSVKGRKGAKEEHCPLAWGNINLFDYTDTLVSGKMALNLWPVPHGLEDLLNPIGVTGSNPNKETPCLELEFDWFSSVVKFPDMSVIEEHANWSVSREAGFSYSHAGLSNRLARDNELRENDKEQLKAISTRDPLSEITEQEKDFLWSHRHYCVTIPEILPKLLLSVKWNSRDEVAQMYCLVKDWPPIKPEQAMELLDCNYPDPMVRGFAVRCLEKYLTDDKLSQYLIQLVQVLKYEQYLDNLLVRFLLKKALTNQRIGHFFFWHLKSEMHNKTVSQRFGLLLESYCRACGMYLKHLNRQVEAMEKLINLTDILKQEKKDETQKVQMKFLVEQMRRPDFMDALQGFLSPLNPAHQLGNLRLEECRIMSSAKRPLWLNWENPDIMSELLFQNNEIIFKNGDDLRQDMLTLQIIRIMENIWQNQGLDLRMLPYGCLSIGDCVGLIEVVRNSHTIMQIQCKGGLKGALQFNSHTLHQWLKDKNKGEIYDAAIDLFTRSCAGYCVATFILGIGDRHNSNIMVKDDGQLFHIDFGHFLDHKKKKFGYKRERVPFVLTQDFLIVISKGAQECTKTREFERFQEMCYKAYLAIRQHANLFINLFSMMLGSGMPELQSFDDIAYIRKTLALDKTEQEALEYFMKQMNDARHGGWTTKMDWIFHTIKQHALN
Sequence (P27986 whole entry partner): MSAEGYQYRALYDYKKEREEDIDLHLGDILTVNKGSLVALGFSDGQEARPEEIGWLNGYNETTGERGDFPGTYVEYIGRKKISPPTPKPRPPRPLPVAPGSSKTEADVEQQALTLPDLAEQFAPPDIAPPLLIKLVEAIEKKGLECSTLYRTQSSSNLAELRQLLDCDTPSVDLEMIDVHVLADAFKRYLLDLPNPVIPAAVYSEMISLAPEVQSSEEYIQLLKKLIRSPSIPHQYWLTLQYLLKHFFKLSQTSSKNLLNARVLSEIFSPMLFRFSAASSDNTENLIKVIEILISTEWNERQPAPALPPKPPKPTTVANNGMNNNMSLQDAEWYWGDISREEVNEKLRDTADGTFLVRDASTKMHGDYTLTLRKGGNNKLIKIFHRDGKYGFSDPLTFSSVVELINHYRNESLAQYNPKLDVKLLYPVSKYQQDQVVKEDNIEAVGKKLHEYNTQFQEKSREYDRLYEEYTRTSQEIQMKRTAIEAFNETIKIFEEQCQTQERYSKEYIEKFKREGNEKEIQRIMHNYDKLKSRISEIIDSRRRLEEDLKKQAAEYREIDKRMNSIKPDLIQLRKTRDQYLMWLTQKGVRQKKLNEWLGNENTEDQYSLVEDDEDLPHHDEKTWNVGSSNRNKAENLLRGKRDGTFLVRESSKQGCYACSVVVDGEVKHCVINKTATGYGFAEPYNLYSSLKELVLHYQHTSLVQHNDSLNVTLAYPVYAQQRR
Assay: ADP-Glo Biochemical PIK3CA Kinase Assay
Details: ADP-Glo biochemical PIK3CA kinase assay
Quick reference for IC50 among some compounds

| Compound | IC50 |
| --- | --- |
| Cc1ccccc1Nc1ncc(C(=O)N2CC(C(=O)O)C2)cc1NC(=O)c1csc2ccccc12 [I-600] | 1 to 10 µM |
| Cc1ccccc1Nc1ncc(C(=O)NC2CCC(F)(F)C2)cc1NC(=O)c1csc2ccccc12 (stereo not shown) [I-544] | 0.1 to 0.5 µM |
| Cc1cncc(CNC(=O)c2cnc(Nc3ccccc3C)c(NC(=O)c3csc4ccccc34)c2)c1 [I-579] | ≤ 0.1 µM |
| Cc1ccccc1Nc1ncc(C(=O)Nc2c3c(nn2C)CCC3)cc1NC(=O)c1csc2ccccc12 [I-521] | 10 to 100 µM |
| CNC(=O)c1cnc(Nc2ccccc2C)c(NC(=O)c2cccc3ccn(C)c23)c1 [I-518] | 10 to 100 µM |
| CCn1ccc(C)c(CNC(=O)c2cnc(Nc3ccccc3C)c(NC(=O)c3csc4ccccc34)c2)c1=O [I-611] | 0.1 to 0.5 µM |
| CNC(=O)c1cnc(Nc2ccccc2C)c(NC(=O)c2cn3cccc(Br)c3n2)c1 [I-509] | 10 to 100 µM |
| Nc1cnc(Nc2cc(F)ccc2Cl)c(NC(=O)c2cc(F)cc(C(F)(F)F)c2)c1 [I-780] | 10 to 100 µM |
| CNC(=O)c1cnc(Nc2ccccc2C)c(NC(=O)c2cc(F)ccc2OC(F)(F)F)c1 [I-495] | 10 to 100 µM |
| CNC(=O)c1cnc(Nc2cccc3[nH]ccc23)c(NC(=O)c2csc3ccccc23)c1 [I-768] | 0.5 to 1 µM |
| CNC(=O)c1cnc(Nc2ccccc2C)c(NC(=O)c2cc(C(F)(F)F)ccn2)c1 [I-432] | 10 to 100 µM |
| CNC(=O)c1cnc(Nc2ccccc2C)c(NC(=O)c2ccc3c(ccn3C)c2)c1 [I-523] | 10 to 100 µM |
| COC1CN(c2ncc(C(=O)N[C@H]3C[C@@H](C(C)=O)C3)cc2NC(=O)c2csc3ccccc23)C1 [I-771] | 1 to 10 µM |
| O=C(NCc1ccccc1CN1CCCCC1)c1cc(F)cc(C(F)(F)F)c1 [I-785] | 10 to 100 µM |
| CNC(=O)c1cnc(Nc2ccccc2C)c(NC(=O)c2cc(C)cc3cc[nH]c23)c1 [I-423] | 1 to 10 µM |
| Cc1ccccc1Nc1ncc(N2CC(S(C)(=O)=O)C2)cc1NC(=O)c1csc2ccccc12 [I-436] | 0.5 to 1 µM |
| CNC(=O)c1cnc(Nc2ccccc2C)c(NC(=O)c2cccc3[nH]c(C(F)(F)F)nc23)c1 [I-530] | 0.1 to 0.5 µM |
| CNC(=O)c1cnc(NCCC#N)c(NC(=O)c2cc(F)cc(C(F)(F)F)c2)c1 [I-550] | 1 to 10 µM |
| CNC(=O)c1cnc(Nc2ccccc2C)c(NC(=O)c2nc3cccc(C(F)(F)F)n3n2)c1 [I-642] | 1 to 10 µM |

----------
Target: H1047R PIK3CA enzyme (Homo sapiens, UniProt P42336, H1047R)
Experiment: ADP-Glo Biochemical PIK3CA Kinase Assay
Settings: ADP-Glo biochemical PIK3CA kinase assay
Experimental: Compounds to be assayed were plated in 16 doses of 1:2 serial dilutions (20 nL volume each well) on a 1536-well plate, and the plate warmed to room temperature. PIK3CA enzyme (e.g. H1047R, E542K, E545K, or wild-type) (1 μL of 2 nM solution in Enzyme Assay Buffer (comprising 50 mM HEPES pH 7.4, 50 mM NaCl, 6 mM MgCl2, 5 mM DTT and 0.03% CHAPS)) was added and shaken for 10 seconds and preincubated for 30 minutes. […]
pIC50: −log10 of the molar value.

| Structure string | pIC50 |
| --- | --- |
| CNC(=O)c1cnc(Nc2ccccc2C)c(NC(=O)CCc2cc(F)ccc2Br)c1 | 4.00 to 5.00 |
| Cc1ccccc1Nc1ncc(C(=O)Nc2ncnn2C)cc1NC(=O)c1csc2ccccc12 | 5.00 to 6.00 |
| CNC(=O)c1cnc(Nc2ccccc2C)c(NC(=O)c2ccc3cnccc3c2)c1 | 5.00 to 6.00 |
| Cc1ccccc1Nc1ncc(C(=O)NCC2(O)CCCC2)cc1NC(=O)c1csc2ccccc12 | 6.00 to 6.30 |
| Cc1ccccc1Nc1ncc(C(=O)NCC2(C#N)CCCC2)cc1NC(=O)c1csc2ccccc12 | 4.00 to 5.00 |

----------
Biological target: H1047R PIK3CA enzyme (Homo sapiens, UniProt P42336, H1047R)
Experiment: ADP-Glo Biochemical PIK3CA Kinase Assay
Quick reference for IC50 among some molecules
Recorded metric: IC50

| Molecule | Target system | Measured result |
| --- | --- | --- |
| C[C@@H](NC(=O)c1cnc(N2CCOc3ccccc32)c(NC(=O)c2csc3ccccc23)c1)c1ccccn1 (racemic) | H1047R PIK3CA enzyme (Homo sapiens, UniProt P42336, H1047R) | 0.1 to 0.5 µM |
| CNC(=O)c1cnc(Nc2ccccc2C)c(NC(=O)c2cccc(F)c2)c1 | H1047R PIK3CA enzyme (Homo sapiens, UniProt P42336, H1047R) | 10 to 100 µM |
| O=C(Nc1cccc(=O)n1Cc1ccccc1)c1csc2ccccc12 | H1047R PIK3CA enzyme (Homo sapiens, UniProt P42336, H1047R) | 10 to 100 µM |
| CNC(=O)c1cnc(Nc2cccc(F)c2)c([N+](=O)[O-])c1 | H1047R PIK3CA enzyme (Homo sapiens, UniProt P42336, H1047R) | 10 to 100 µM |
| O=C(NCCN1CCOCC1)c1cnc(N2CCOc3ccccc32)c(NC(=O)c2csc3ccccc23)c1 | H1047R PIK3CA enzyme (Homo sapiens, UniProt P42336, H1047R) | 1 to 10 µM |
| CNC(=O)c1cnc(Nc2ccccc2C)c(NC(=O)c2csc(C(F)(F)F)n2)c1 | H1047R PIK3CA enzyme (Homo sapiens, UniProt P42336, H1047R) | 10 to 100 µM |
| Cc1cnc(Nc2ccccc2C)c(NC(=O)c2cc(F)cc(C(F)(F)F)c2)c1 | H1047R PIK3CA enzyme (Homo sapiens, UniProt P42336, H1047R) | 10 to 100 µM |
| CNC(=O)c1cnc(Nc2ccccc2C)c(NC(=O)c2cc3ccccc3o2)c1 | H1047R PIK3CA enzyme (Homo sapiens, UniProt P42336, H1047R) | 10 to 100 µM |
| Cc1ccccc1Nc1cc2nnc(N)n2cc1NC(=O)c1csc2ccccc12 | H1047R PIK3CA enzyme (Homo sapiens, UniProt P42336, H1047R) | 1 to 10 µM |
| CNC(=O)c1cnc(Nc2ccccc2C)c(NC(=O)c2cc(F)cc(OC(F)(F)F)c2)c1 | H1047R PIK3CA enzyme (Homo sapiens, UniProt P42336, H1047R) | 1 to 10 µM |
| O=C(NC1CS(=O)(=O)C1)c1cnc(N2C[C@H]3C[C@H]3c3ccccc32)c(NC(=O)c2csc3ccccc23)c1 (racemic) | H1047R PIK3CA enzyme (Homo sapiens, UniProt P42336, H1047R) | 0.5 to 1 µM |
| CNC(=O)c1cnc(Nc2ccccc2C)c(N(S(=O)(=O)c2ccccc2)S(=O)(=O)c2ccccc2)c1 | H1047R PIK3CA enzyme (Homo sapiens, UniProt P42336, H1047R) | 10 to 100 µM |
| CNC(=O)c1cnc(Nc2ncccc2C)c(NC(=O)c2csc3ccccc23)c1 | H1047R PIK3CA enzyme (Homo sapiens, UniProt P42336, H1047R) | 0.5 to 1 µM |
| Cc1ccccc1N[C@H]1CCN(C(=O)C2(O)CC2)C[C@H]1C(=O)Nc1cc(F)cc(C(F)(F)F)c1 (racemic) | H1047R PIK3CA enzyme (Homo sapiens, UniProt P42336, H1047R) | 10 to 100 µM |
| CNC(=O)c1cnc(Nc2cccc(F)c2OC)c(NC(=O)c2cc(F)cc(C(F)(F)F)c2)c1 | H1047R PIK3CA enzyme (Homo sapiens, UniProt P42336, H1047R) | 1 to 10 µM |
| CNC(=O)c1cnc(Nc2ccccc2C)c(NC(=O)CC2OCCc3ccccc32)c1 (centres unmarked) | H1047R PIK3CA enzyme (Homo sapiens, UniProt P42336, H1047R) | 10 to 100 µM |
| O=C(N[C@@H]1CCC[C@H](O)[C@H]1c1cc(F)ccc1Cl)c1cc(F)cc(C(F)(F)F)c1 (racemic) | H1047R PIK3CA enzyme (Homo sapiens, UniProt P42336, H1047R) | 10 to 100 µM |
